Task for the reader: assign each of the following molecules its reported Inhibition at 10 μM (%).
- System: HDAC (HeLa nuclear extract)
- Procedure Details: HDAC Inhibitor Drug Screening Kit (fluorometric, Biovision K340-100)
- Type: biochemical
- Particulars: 10 μM, mean of 3 independent measurements, SD <10%
- Description: The N^1-phenylpyrazole derivatives 1a (the isomer with the connection unit at C5) and 1b (the isomer with the connection unit at C3) were evaluated for their ability to inhibit the HDAC activity to have a preliminary insight about the SAR of this set of compounds. […] As for 1a, the detected inhibitory activity of 2 and 3 was in the low micromolar range (6.3 µM and 1.6 µM, respectively; Table 1).
Give bare numbers, in %.

Example entries and their recorded answers appear below.
O=C(/C=C/c1ccc(NC(=O)c2cc(-c3ccccc3)[nH]n2)cc1)NO [Compound 4]; 13
Cc1cc(C(=O)Nc2ccc(/C=C/C(=O)NO)cc2)nn1-c1ccccc1 [Compound 1b]; 6
O=C(/C=C/c1ccc(NC(=O)c2n[nH]c3c2Cc2ccccc2-3)cc1)NO [Compound 6]; 29

List Inhibition at 10 μM (%) for every entry below, keeping the order given.
1. Cc1cc(C(=O)Nc2ccc(/C=C/C(=O)NO)cc2)n(-c2ccc(C#N)cc2)n1 [Compound 2]
2. Cc1cc(C(=O)Nc2ccc(/C=C/C(=O)NO)cc2)n(-c2ccc(Br)cc2)n1 [Compound 3]

*A*
[51, 74]

Ref: paper PMC6412695
